B1: Cyclin-F, residues 28 to 80; numbered along this chain, P41002 (parent)
chain: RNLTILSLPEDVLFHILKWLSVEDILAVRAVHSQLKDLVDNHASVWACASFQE

Variants of: B1
METHOD: abundance fitness (aPCA) (normalised: wild type 0, dead -1); higher = more abundant; growth selection in yeast, the domain comes from the species named
TEST PARAMETERS: Homo sapiens
OBSERVED PROPERTY: abundance fitness

# MUTANT, READOUT VALUE
data = [
    ("H32L", -0.757),
    ("L8M", -0.407),
    ("Q34Y", -0.374),
    ("W46I", -0.294),
    ("Q52D", -0.296),
    ("D11E", -0.153),
    ("L35E", -0.745),
    ("K36P", -0.573),
    ("E10L", -0.646),
    ("L6T", -0.486),
    ("R29H", -0.65),
    ("V39W", -0.648),
    ("S21R", -0.157),
    ("D11C", -0.18),
    ("R1T", -0.058),
    ("L26G", -0.451),
    ("I5M", -0.254),
    ("L35R", -0.884),
    ("H15S", -0.235),
    ("A47T", -0.43),
    ("W19M", 0.33),
    ("V31K", -0.809),
    ("N2W", -0.871),
    ("I5C", -0.692),
    ("A47V", -0.513),
    ("A47R", -0.14),
    ("W19R", -0.154),
    ("R1A", -1.04),
    ("I5E", -0.679),
    ("S50T", -0.166),
    ("H32T", -0.503),
    ("H32E", -0.653),
    ("P9N", -0.882),
    ("A30K", -0.339),
    ("A49V", -0.609),
    ("R29F", -0.574),
    ("W46T", -0.3),
    ("L6F", -0.356),
    ("R1I", 0.032),
    ("V12I", 0.033),
    ("C48Y", -0.367),
    ("A47L", -0.235),
    ("I25P", -0.806),
    ("K36A", -0.561),
    ("P9M", -1.04),
    ("H15A", -0.279),
    ("S21M", -0.815),
    ("L6W", -0.678),
    ("A43V", -0.616),
    ("K18N", -0.107),
    ("C48A", -0.232),
    ("H42K", -0.068),
    ("I25M", -0.346),
    ("S33K", -0.294),
    ("Q34H", -0.121),
    ("V12N", -1.02),
    ("S44H", 0.222),
    ("E23Y", -0.62),
    ("K36W", -0.626),
    ("H42P", -0.526),
    ("F51R", -0.187),
    ("D40C", -0.912),
    ("H15M", -0.116),
    ("R29M", -0.541),
    ("H15C", -0.091),
    ("L38D", -0.758),
    ("E23P", -0.236),
    ("A27H", -0.259),
    ("L6S", -0.885),
    ("L3N", -0.337),
    ("R29G", -0.795),
    ("L17Q", -0.782),
    ("R29C", -0.635),
    ("Q52C", -0.213),
    ("D40S", -0.432),
    ("D37H", -0.086),
    ("L6Q", -0.427),
    ("P9E", -0.646),
    ("Q34W", -0.753),
    ("E53C", -0.527),
    ("V22K", -0.132),
    ("S33N", -0.67),
    ("E53I", -0.533),
    ("I5S", -1.04),
    ("K36D", -0.886),
    ("H32W", -0.937),
    ("A43I", -0.577),
    ("N41V", -0.484),
    ("L13G", -0.692),
    ("L20A", -0.667),
    ("F51A", -0.138),
]
